Data provenance is patent US20110098440A1.

Target: T1, purified recombinant human insulin receptor (IR-A) (human, UniProt P06213-2 28-1370, limits assumed)
T1 construct: The receptor was captured on SPA beads through the F12 antibody
Test: SPA competition, displacement of A14Tyr[125I]-human insulin from human insulin receptor, 4.5% HSA; relative to desB30 human insulin = 100%
OBSERVED PROPERTY: IR-A affinity (4.5% HSA) (%)
Form entry: value (%) — number only.

Please review the following examples before continuing.
{"columns": ["BINDER", "RECORDED NUMBER"],
 "data": [
  ["A14E, A22K(N^ε-[2-(2-[2-(2-[2-(Octadecandioyl-γGlu)amino]ethoxy)ethoxy]acetylamino)ethoxy]ethoxy)-acetyl]), B25H, B29R, desB30 human insulin (ligand, A22K(N^ε-[2-(2-[2-(2-[2-(Octadecandioyl-γGlu)amino]ethoxy)ethoxy]acetylamino)ethoxy]ethoxy)-acetyl]), also called C18-gGlu-OEG-OEG, A14E, A22K, B25H, B29R) chain 1: GIVEQCCTSICSLEQLENYCNK chain 2: FVNQHLCGSHLVEALYLVCGERGFHYTPR", 5],
  ["A14E, A22K(N^ε-Eicosanedioyl-γGlu-(3-(2-{2-[2-(2-aminoethoxy)ethoxy]ethoxy}ethoxy)propionyl)), B25H, B29R, desB30 human insulin (ligand, A22K(N^ε-Eicosanedioyl-γGlu-(3-(2-{2-[2-(2-aminoethoxy)ethoxy]ethoxy}ethoxy)propionyl)), also called C20-gGlu-PEG3, A14E, A22K, B25H, B29R) chain 1: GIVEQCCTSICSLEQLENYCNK chain 2: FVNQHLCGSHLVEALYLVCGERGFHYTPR", 5.2]
]}

-- ask Looking for the measured IR-A affinity (4.5% HSA) of A8H, A22K(N^ε-Octadecandioyl-γGlu-[2-(2-{2-[2-(2-aminoethoxy)ethoxy]acetylamino}ethoxy)ethoxy]-acetyl), B29R, desB30 human insulin (ligand, A22K(N^ε-Octadecandioyl-γGlu-[2-(2-{2-[2-(2-aminoethoxy)ethoxy]acetylamino}ethoxy)ethoxy]-acetyl), also called C18-gGlu-OEG-OEG, A8H, A22K, B29R) chain 1: GIVEQCCHSICSLYQLENYCNK chain 2: FVNQHLCGSHLVEALYLVCGERGFFYTPR , can you help?
-- reply 63

-- ask Also check A18L, A22K(N^ε-Octadecandioyl-γGlu-[2-(2-{2-[2-(2-aminoethoxy)ethoxy]acetylamino}ethoxy)ethoxy]-acetyl), B29R, desB30 human insulin (ligand, A22K(N^ε-Octadecandioyl-γGlu-[2-(2-{2-[2-(2-aminoethoxy)ethoxy]acetylamino}ethoxy)ethoxy]-acetyl), also called C18-gGlu-OEG-OEG, A18L, A22K, B29R) chain 1: GIVEQCCTSICSLYQLELYCNK chain 2: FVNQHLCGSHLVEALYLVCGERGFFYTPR
-- reply 23.6
